# credit: the supplement of paper PMC11908140

B1: library; numbered along this chain (parent)
chain: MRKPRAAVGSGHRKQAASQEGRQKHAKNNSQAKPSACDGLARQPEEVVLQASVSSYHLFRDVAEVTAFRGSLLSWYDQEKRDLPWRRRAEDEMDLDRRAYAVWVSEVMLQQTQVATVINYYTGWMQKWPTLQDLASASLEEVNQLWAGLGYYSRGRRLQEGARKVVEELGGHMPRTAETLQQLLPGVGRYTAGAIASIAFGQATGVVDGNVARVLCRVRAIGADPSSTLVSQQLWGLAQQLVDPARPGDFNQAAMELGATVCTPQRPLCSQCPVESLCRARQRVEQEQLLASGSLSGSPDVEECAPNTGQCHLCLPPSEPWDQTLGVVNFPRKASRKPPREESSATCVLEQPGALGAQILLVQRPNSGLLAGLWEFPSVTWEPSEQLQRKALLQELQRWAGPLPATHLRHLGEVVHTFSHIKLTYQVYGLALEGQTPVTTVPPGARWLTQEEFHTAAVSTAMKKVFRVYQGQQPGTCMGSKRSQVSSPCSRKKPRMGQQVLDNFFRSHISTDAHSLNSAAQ

Variants of: B1
Assay: 8OG:A repair function score (normalized; synonymous = 0, nonsense = -1) (normalized log-likelihood score); higher = more repair activity (WT-like);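 note: cells sorted at 72 h after reporter transfection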
Settings: with 8OG:A DNA repair reporter (GFP) in HEK-293 MUTYH KO cells
property-label: 8OG:A repair function score

- variant-key: "T204R"
  property-label: "8OG:A repair function score"
  readout-value: -0.0298
- variant-key: "G434P"
  property-label: "8OG:A repair function score"
  readout-value: -0.0275
- variant-key: "N143C"
  property-label: "8OG:A repair function score"
  readout-value: -0.216
- variant-key: "Q426D"
  property-label: "8OG:A repair function score"
  readout-value: -0.46
- variant-key: "Q521A"
  property-label: "8OG:A repair function score"
  readout-value: 0.0136
- variant-key: "N329F"
  property-label: "8OG:A repair function score"
  readout-value: -0.345
- variant-key: "G353F"
  property-label: "8OG:A repair function score"
  readout-value: -0.0929
- variant-key: "L349M"
  property-label: "8OG:A repair function score"
  readout-value: 0.0308
- variant-key: "I221E"
  property-label: "8OG:A repair function score"
  readout-value: -0.989
- variant-key: "P443Y"
  property-label: "8OG:A repair function score"
  readout-value: -0.0335
- variant-key: "R97G"
  property-label: "8OG:A repair function score"
  readout-value: -0.0171
- variant-key: "P383M"
  property-label: "8OG:A repair function score"
  readout-value: -0.333
- variant-key: "L73W"
  property-label: "8OG:A repair function score"
  readout-value: -0.824
- variant-key: "P267L"
  property-label: "8OG:A repair function score"
  readout-value: -1.03
- variant-key: "A305Y"
  property-label: "8OG:A repair function score"
  readout-value: 0.000265
- variant-key: "S483W"
  property-label: "8OG:A repair function score"
  readout-value: -0.033
- variant-key: "R87K"
  property-label: "8OG:A repair function score"
  readout-value: 0.00471
- variant-key: "W146H"
  property-label: "8OG:A repair function score"
  readout-value: -0.738
- variant-key: "Q498P"
  property-label: "8OG:A repair function score"
  readout-value: -0.0275
- variant-key: "G170K"
  property-label: "8OG:A repair function score"
  readout-value: -0.0295
- variant-key: "L396D"
  property-label: "8OG:A repair function score"
  readout-value: -1.33
- variant-key: "S384E"
  property-label: "8OG:A repair function score"
  readout-value: 0.0681
- variant-key: "L361P"
  property-label: "8OG:A repair function score"
  readout-value: -1.01
- variant-key: "C314M"
  property-label: "8OG:A repair function score"
  readout-value: -0.46
- variant-key: "P320K"
  property-label: "8OG:A repair function score"
  readout-value: -0.1
- variant-key: "D82F"
  property-label: "8OG:A repair function score"
  readout-value: -0.22
- variant-key: "G258W"
  property-label: "8OG:A repair function score"
  readout-value: -1.49
- variant-key: "D300R"
  property-label: "8OG:A repair function score"
  readout-value: -0.291
- variant-key: "S231T"
  property-label: "8OG:A repair function score"
  readout-value: 0.0918
- variant-key: "A67K"
  property-label: "8OG:A repair function score"
  readout-value: -0.0225
- variant-key: "L180H"
  property-label: "8OG:A repair function score"
  readout-value: -1.24
- variant-key: "L387D"
  property-label: "8OG:A repair function score"
  readout-value: 0.259
- variant-key: "L370E"
  property-label: "8OG:A repair function score"
  readout-value: -1.06
- variant-key: "C269A"
  property-label: "8OG:A repair function score"
  readout-value: -1.29
- variant-key: "G353V"
  property-label: "8OG:A repair function score"
  readout-value: -0.123
- variant-key: "S231C"
  property-label: "8OG:A repair function score"
  readout-value: -0.12
- variant-key: "A445P"
  property-label: "8OG:A repair function score"
  readout-value: -0.65
- variant-key: "G401M"
  property-label: "8OG:A repair function score"
  readout-value: -0.302
- variant-key: "Y151I"
  property-label: "8OG:A repair function score"
  readout-value: -0.244
- variant-key: "T324W"
  property-label: "8OG:A repair function score"
  readout-value: -0.0525
- variant-key: "E302A"
  property-label: "8OG:A repair function score"
  readout-value: -0.273
